# Tested on: LOX IMVI melanoma
# method: NCI-60 one-dose screen, 48 h
# conditions used: 10 µM unless noted
This is part of a sample that, as a whole, favours compounds with a hit. Of some 83,000 tested, about 20% had one in any assay. Activity calls are given as the source filed them. How the source made its calls: active means growth percent below 10; inactive means the rest.
Outcome codes: active, inactive

>>> label_value("Cc1cc(=O)oc2cc(Oc3nc(-c4ccccc4)cn4c(-c5ccccc5)cnc34)ccc12")
"inactive"
>>> label_value("O=c1c2cccc3c(N4CCOCC4)ccc(c32)c2nc3ccccc3n12")
"inactive"
>>> label_value("Cn1cc(-c2csc(-c3cn(CCO)c4ccc(F)cc34)n2)c2cccnc21")
"inactive"
>>> label_value("COc1cc(/C=C2\\CN(S(=O)(=O)c3ccc(C)cc3)C/C(=C\\c3cc(CN4CCCC4)c(O)c(OC)c3)C2=O)cc(CN2CCCC2)c1O")
"active"
>>> label_value("COc1cc(OC)cc(C(=O)Nc2cnc(Nc3ccc(N4CCOCC4)nc3)nc2Oc2ccc(C(F)(F)F)cc2)c1")
"inactive"

----------
# growth annotations
# Tested on: SK-MEL-28 melanoma
# method: NCI-60 one-dose screen, 48 h (100 = growth as untreated, 0 = no growth, -100 = all killed)
# conditions used: 10 µM unless noted
The panel holds about 83,000 compounds, 20% with a hit somewhere; the sample as a whole holds those more often.
result type: growth (%)

>>> readout_value("COc1ccc(C2=C/C(=C\\c3ccccc3O)C(=O)N2Cc2ccccc2)cc1")
79.9
>>> readout_value("O=C(OCc1ccc2c(Br)cc(Br)c(O)c2n1)N1CCN(C(=O)c2cc3ccccc3[nH]2)CC1")
58.1
>>> readout_value("O=c1ccc2c(ccc3ncccc32)o1")
113
>>> readout_value("O=C(CSc1nc(-c2ccccc2)cn1-c1ccc(Cl)cc1)c1ccc([N+](=O)[O-])cc1")
89
>>> readout_value("C=C(c1ccc(OC)c(/C=C/C(=O)c2cc(OC)c(OC)c(OC)c2)c1)c1cc(OC)c(OC)c(OC)c1")
-77.3

----------
# Test system: RXF 393 renal
# method: NCI-60 one-dose screen, 48 h (100 = growth as untreated, 0 = no growth, -100 = all killed)
# conditions used: 10 µM unless noted
# Experimental: Cells are grown in 96 well plates and exposed to the test compound for 48 hours. Compounds are tested at a single concentration, which is 10^-5 M for most compounds. The reported endpoint is percent growth (GI% or GIPRCNT), where numbers from 0 - 100% represent growth inhibition, and numbers from -100% - 0 represent cell death. For example, a value of 40 represents 60% growth inhibition. A value of 0 means no net growth occurred over the course of the experiment. […]
Compounds without any hit were thinned out: in the full panel of roughly 83,000, 20% have a hit.
Param label: returns Fulfilled when growth < 30%, returns Not fulfilled otherwise, including exact equality.

>>> label_value("C=CC(=O)Nc1ccc2ncnc(Nc3cccc(NS(=O)(=O)CCC)c3Cl)c2c1")
"Fulfilled"
>>> label_value("COc1ccccc1NC(=O)n1c(=O)cc(C)c2ccc(O)cc21")
"Not fulfilled"
>>> label_value("CN1CCN(CC(=O)N(C)c2ccc(N=C(c3ccccc3)c3c(O)[nH]c4ccc([N+](=O)[O-])cc34)cc2)CC1")
"Fulfilled"
>>> label_value("Cc1c(N2CCCCC2)[nH]c2ccccc12")
"Not fulfilled"
>>> label_value("C=CC(=O)NCc1cccc(Nc2ncc(Br)c(NCCCNC(=O)C3CCC3)n2)c1")
"Fulfilled"

----------
# System: SF-268 CNS
# method: NCI-60 one-dose screen, 48 h (100 = growth as untreated, 0 = no growth, -100 = all killed)
# conditions used: 10 µM unless noted
Compounds without any hit were thinned out: in the full panel of roughly 83,000, 20% have a hit.
result type: growth (%)

>>> readout_value("COc1cccc(-c2nn(-c3ccccc3)cc2-c2ccnc(-c3cccnc3)c2)c1")
94.9
>>> readout_value("CN1CCN(Cc2ccc(NC(=O)c3cncc(C#Cc4c(N)ncc5cc(F)ccc45)c3)cc2C(F)(F)F)CC1")
38.6
>>> readout_value("O=C1/C(=C/c2cccc(Br)c2)COc2ccc(O)c(O)c21")
-23.9
>>> readout_value("CSc1nn2c(-c3cc4cc(Br)ccc4oc3=O)ccnc2c1C#N")
103
>>> readout_value("Oc1cccc(-c2nc(-c3n[nH]c(=S)n3-c3ccccc3)cc3c2[nH]c2ccccc23)c1")
28.6
>>> readout_value("Cc1ccc(C2=Nc3c(N)nc(N)nc3NC(c3cccc(Nc4ccnc5cc(C(F)(F)F)ccc45)c3)C2)cc1 (stereo not given)")
29.7
>>> readout_value("O=C(Nc1ccccc1CNc1nc(Nc2ccc(OCCN3CCCC3)cc2)ncc1Cl)NC1CCCCC1")
73.1
>>> readout_value("COc1cc(C2CC(c3cccc(Nc4ccncc4)c3)=Nc3c(N)ncnc3N2)cc(OC)c1OC (stereo not given)")
79
>>> readout_value("O=C(Nc1ccc2[nH]ncc2c1)c1csc(Nc2ccccc2)n1")
56.6
>>> readout_value("c1ccc2cc(Cn3cc[n+](Cc4ccc5ccccc5c4)c3)ccc2c1")
32.1

----------
# Tested on: COLO 205 colon
# method: NCI-60 one-dose screen, 48 h (100 = growth as untreated, 0 = no growth, -100 = all killed)
# conditions used: 10 µM unless noted
This is part of a sample that, as a whole, favours compounds with a hit. Of some 83,000 tested, about 20% had one in any assay.
# growth annotations
result type: growth (%)

>>> readout_value("CNC1=C([N+](=O)[O-])C(c2ccc(OC)cc2)C(C#N)=C(c2ccc[nH]2)O1 (stereo not given)")
107
>>> readout_value("Cc1[nH]c(C2CC(c3ccc(C(F)(F)F)c(F)c3)=NN2C)c(C)c1C(=O)NCC(F)(F)F (stereo not given)")
114
>>> readout_value("Nc1nc(N)c2c(n1)NC(c1ccc3c(c1)OCO3)CC(c1cccc(Nc3ccncc3)c1)=N2 (stereo not given)")
86.3
>>> readout_value("COc1ccccc1NC(=O)n1c(=O)cc(C)c2ccc(O)cc21")
110
>>> readout_value("Cc1cc(=O)oc2cc(Oc3nc(-c4ccccc4)cn4c(-c5ccccc5)cnc34)ccc12")
70.5

----------
# Tested on: A498 renal
# method: NCI-60 one-dose screen, 48 h (100 = growth as untreated, 0 = no growth, -100 = all killed)
# conditions used: 10 µM unless noted
The panel holds about 83,000 compounds, 20% with a hit somewhere; the sample as a whole holds those more often.
result type: growth (%)

>>> readout_value("COc1ccc(-c2nc3cc(C(=O)NC4CCCCC4)ccc3n2C2CCCCC2)cc1")
103
>>> readout_value("COc1cc(C)cc(-c2c(-c3cc(N4CC(O)C4)nc(-c4cccnc4)n3)cnn2C)c1")
72.8
>>> readout_value("C=C(C)[C@@H]1CC[C@]2(COCCCNCCCN)CC[C@]3(C)[C@H](CC[C@@H]4[C@@]5(C)CC[C@H](OCCCN)C(C)(C)[C@@H]5CC[C@]43C)[C@@H]12")
90.3
>>> readout_value("C=C(CNCCc1ccc(O)cc1)[C@@H]1CC[C@]2(CO)CC[C@]3(C)[C@H](CC[C@@H]4[C@@]5(C)CCC(N)C(C)(C)[C@@H]5CC[C@]43C)[C@@H]12 (stereo partly drawn)")
64.5
>>> readout_value("COc1cc2c(cc1-c1c(C)noc1C)ncc1nc(C3CCOCC3)n(C3CCC(OC(F)F)CC3)c12 (stereo not drawn)")
41.7
>>> readout_value("COC(=O)[C@H]1Cc2c([nH]c3ccccc23)[C@H](c2ccc3c(c2)OCO3)N1")
97.5
>>> readout_value("Cc1c(Cl)cccc1NC(=O)c1sc2nc3c(cc2c1N)CCCC3")
-1.63
>>> readout_value("O=C1CCc2c(sc3[nH]c(=S)n(-c4cc(C(F)(F)F)cc(C(F)(F)F)c4)c(=O)c23)C1")
-18.2

----------
# growth annotations
# Tested on: 786-0 renal
# method: NCI-60 one-dose screen, 48 h (100 = growth as untreated, 0 = no growth, -100 = all killed)
# conditions used: 10 µM unless noted
Compounds without any hit were thinned out: in the full panel of roughly 83,000, 20% have a hit.
result type: growth (%)

>>> readout_value("COc1cc(C2=Nc3c(N)nc(N)nc3NC(c3cccc(Nc4ccnc5cc(C(F)(F)F)ccc45)c3)C2)cc(OC)c1OC (centres undefined)")
61
>>> readout_value("CCN1C(=O)N(CC)C2C1NN=c1s/c(=C\\c3ccc(F)cc3)c(=O)n12 (centres undefined)")
35
>>> readout_value("Cn1cc(-c2ccc3occ(-c4cccc(-c5ccncc5)c4)c3n2)cn1")
17.7
>>> readout_value("COC(=O)c1c(C(=O)OC)c2ccc3c4ncccc4ccc3n2c1C(=O)c1ccc(C)cc1")
91

----------
# Tested on: UACC-257 melanoma
# method: NCI-60 one-dose screen, 48 h (100 = growth as untreated, 0 = no growth, -100 = all killed)
# conditions used: 10 µM unless noted
The panel holds about 83,000 compounds, 20% with a hit somewhere; the sample as a whole holds those more often.
# growth annotations
result type: growth (%)

>>> readout_value("O=C1OCC2=C1C(c1cccc(F)c1)c1cc3c(cc1N2CCO)CCC3 (stereo not drawn)")
90.1
>>> readout_value("O=c1oc2ccccc2cc1-c1nn(-c2ccccc2)cc1/C=N/Nc1nc(-c2ccccc2)c(N=Nc2ccccc2)s1")
86.5
>>> readout_value("CC(C)(C)[C@H](OCc1cn([C@H]2C[C@@H](O)[C@@H](CO)O2)c(=O)[nH]c1=O)c1ccc(C#Cc2ccccc2)cc1[N+](=O)[O-]")
83.5
>>> readout_value("CC(=O)c1c(/C=C/c2ccc(C)cc2)c2ccccc2[nH]c1=O")
81.1
>>> readout_value("COc1cc2ncnc(Nc3ccc(S(=O)(=O)Nc4cc(C)on4)cc3)c2cc1OCCCN1CCOCC1")
99.8
>>> readout_value("Cc1nc2ccccc2c(/C=C/c2ccc(Cl)cc2)c1C(=O)/C=C/c1ccccc1")
-3.79
>>> readout_value("Cn1ccnc1C(=O)/C=C/c1ccc(C(=O)Nc2c(F)c(F)c(F)c(F)c2F)cc1")
73.7
>>> readout_value("CNC(=O)c1cc(Oc2ccc3nc(NC(=O)NC(C)C)sc3c2)ccn1")
73.7
>>> readout_value("CC(C)n1nc(-c2ccc3oc(N)nc3c2)c2c(N)ncnc21")
-27.8
>>> readout_value("Cc1ccc2c(c1)CC(O)CC1C(=O)N(CCO)CC(=O)N21 (stereo not drawn)")
81.1
>>> readout_value("O=C(O)/C=C/c1cn(-c2ccccc2)nc1-c1ccc(F)cc1")
80.7
>>> readout_value("O=c1ccc2c(ccc3ncccc32)o1")
110
>>> readout_value("C=C(CNCCc1ccc(O)cc1)[C@@H]1CC[C@]2(CO)CC[C@]3(C)[C@H](CC[C@@H]4[C@@]5(C)CCC(N)C(C)(C)[C@@H]5CC[C@]43C)[C@@H]12 (stereo partly drawn)")
-77.3
>>> readout_value("C/C=C(/C)C(=O)O[C@@H]1CC(C)(C)CC2C34OC(=O)[C@@]21CC[C@@]3(C)[C@]1(C)CCC2C(C)(C)C(=O)CC[C@]2(C)C1C[C@@H]4O (stereo partly drawn)")
64.6
>>> readout_value("CN1C(=O)N(C)C2C1NN=c1s/c(=C\\c3ccccc3F)c(=O)n12 (stereo not drawn)")
54.5
>>> readout_value("CC1=C2[C@@H](CC1)[C@]1(C)O[C@@](C(C)C)(C[C@H]1OC(=O)CO)[C@H]2OC(=O)CCCc1ccccc1")
85.1
>>> readout_value("Cn1ccnc1C(=O)/C=C/c1ccc(CC(=O)Nc2cc(F)c(F)c(F)c2)cc1")
80.2
>>> readout_value("O=S(=O)(Nc1ccc(Br)cc1)c1ccc(-c2cnc(C3CC3)o2)cc1")
66.1
